Test name: Inhibition of DENV3 (MY00-22366) RdRP expressed in Escherichia coli Rosetta2(DE3) incubated for 180 mins in presence of ATP,GTP,and UTP by scintillation counter analysis
Parameters: species or system dengue virus type 3
Assay endpoint: pIC50
Bear in mind: pIC50 is minus log10 of a mol/L concentration; give just that figure.

pIC50 for O=C(NO)c1ncc(CS(=O)(=O)c2ccccc2)c(CO)c1O is 5.17

---

Assay endpoint: IC50 (µM)
# output: bare number, implied unit µM

Genome polyprotein (dengue virus type 2, UniProt P29990) IC50 of Cc1ccc(S(=O)(=O)Nc2ccc(-c3nnc(SCc4ccccc4C(F)(F)F)o3)cc2)cc1 is 24

Lab entry: Genome polyprotein (dengue virus type 2, UniProt P29990) assay, compound Cc1ccc(S(=O)(=O)Nc2ccc(-c3nnc(SCc4cccc(C(F)(F)F)c4)o3)cc2)cc1 , IC50 = 23.9

Fill in: Genome polyprotein (dengue virus type 2, UniProt P29990) IC50 for O=C1c2ccccc2C(=O)N1CCCCSc1nnc(-c2ccc(NS(=O)(=O)c3ccc(C(F)(F)F)cc3)cc2)o1 = 15.1

Tested system Genome polyprotein (dengue virus type 2, UniProt P29990); IC50 recorded for O=C1c2ccccc2C(=O)N1CCCSc1nnc(-c2ccc(NS(=O)(=O)c3ccc(C(F)(F)F)cc3)cc2)o1 was 13.9

Genome polyprotein (dengue virus type 2, UniProt P29990) assay, compound Cc1ccc(S(=O)(=O)Nc2ccc(-c3nnc(SCc4ccc(C(F)(F)F)cc4)o3)cc2)cc1 , recorded IC50 = 25.2
